- assayed.system: human 5-HT2A receptors (Homo sapiens)
- protocol.text: Saturation isotherm radioligand binding, 5-HT2A receptor
- recorded.conditions: HEK293 cell line 5-HT2AR only, membranes; geometric mean ± SD, n = 3
property: pKd
One number for each entry, as −log10 of the molar value.

Would you mind telling me what pKd value was observed for CN1CN(c2ccccc2)C2(CCN(CCCC(=O)c3ccc(F)cc3)CC2)C1=O [[3H] MSP, [^3H]methylspiperone] ?
9.61

###

- assayed.system: human 5-HT2A receptors (Homo sapiens, UniProt P28223)
- Sequence (P28223 whole entry): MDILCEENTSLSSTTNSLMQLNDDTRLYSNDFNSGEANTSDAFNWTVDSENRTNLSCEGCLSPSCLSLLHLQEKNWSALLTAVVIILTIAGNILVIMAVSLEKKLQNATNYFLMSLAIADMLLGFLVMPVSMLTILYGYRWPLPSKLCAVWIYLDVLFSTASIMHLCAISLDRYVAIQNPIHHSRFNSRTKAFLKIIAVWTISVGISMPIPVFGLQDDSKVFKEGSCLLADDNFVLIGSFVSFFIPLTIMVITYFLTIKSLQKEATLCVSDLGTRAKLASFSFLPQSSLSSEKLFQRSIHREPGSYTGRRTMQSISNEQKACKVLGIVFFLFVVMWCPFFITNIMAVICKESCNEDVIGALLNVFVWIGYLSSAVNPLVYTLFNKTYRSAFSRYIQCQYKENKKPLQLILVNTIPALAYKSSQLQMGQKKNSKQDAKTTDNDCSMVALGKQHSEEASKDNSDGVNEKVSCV
- protocol.text: Saturation isotherm radioligand binding, 5-HT2A receptor
- recorded.conditions: HEK293 cell line 5-HT1A+2AR co-expressing, membranes; geometric mean ± SD, n = 3
property: pKd
One number for each entry, as −log10 of the molar value.

Fill in: pKd of CN1CN(c2ccccc2)C2(CCN(CCCC(=O)c3ccc(F)cc3)CC2)C1=O [[3H] MSP, [^3H]methylspiperone] is ___
9.14

Provenance of the data: paper PMC2635340
